Here's what we have: Average (percentage cell inhibition), Dmastoparan MDA-MB231 12.5uM numbers for MDA-MB-231 cells.
experimentalEndpoint: Average (percentage cell inhibition), Dmastoparan MDA-MB231 12.5uM (%)

| molecule | reportedResult |
| --- | --- |
| CC[C@H](C)[C@H](N)C(=O)N[C@@H](CC(N)=O)C(=O)N[C@@H](CC(C)C)C(=O)N[C@@H](CCCCN)C(=O)N[C@@H](C)C(=O)N[C@@H](CC(N)=O)C(=O)N[C@@H](C)C(=O)N[C@@H](C)C(=O)N[C@@H](CC(C)C)C(=O)N[C@@H](C)C(=O)N[C@@H](CCCCN)C(=O)N[C@@H](CCCCN)C(=O)N[C@H](C(=O)N[C@@H](CC(C)C)C(N)=O)[C@@H](C)CC [N6] | 7.402 |
| CC[C@H](C)[C@H](N)C(=O)N[C@@H](CC(N)=O)C(=O)N[C@@H](CC(C)C)C(=O)N[C@@H](CCCCN)C(=O)N[C@@H](CCC(=O)O)C(=O)N[C@@H](CC(C)C)C(=O)N[C@@H](C)C(=O)N[C@@H](C)C(=O)N[C@@H](CC(C)C)C(=O)N[C@@H](C)C(=O)N[C@@H](CCCCN)C(=O)N[C@@H](CCCCN)C(=O)N[C@H](C(=O)N[C@@H](CC(C)C)C(N)=O)[C@@H](C)CC [E5] | 15.4865 |
| CC[C@H](C)[C@H](N)C(=O)N[C@@H](CC(N)=O)C(=O)N[C@@H](CC(C)C)C(=O)N[C@@H](CCCCN)C(=O)N[C@@H](C)C(=O)N[C@@H](C)C(=O)N[C@@H](C)C(=O)N[C@@H](C)C(=O)N[C@@H](CC(C)C)C(=O)N[C@@H](C)C(=O)N[C@@H](CCCCN)C(=O)N[C@@H](CCCCN)C(=O)N[C@H](C(=O)N[C@@H](CC(C)C)C(N)=O)[C@@H](C)CC [A6] | 16.1268 |

---

Here's what we have: Average (percentage cell inhibition), Dmastoparan MDA-MB231 12.5uM numbers for MDA-MB-231 cells.
experimentalEndpoint: Average (percentage cell inhibition), Dmastoparan MDA-MB231 12.5uM (%)

| compound | reportedResult |
| --- | --- |
| CC[C@H](C)[C@H](NC(=O)[C@H](CCCCN)NC(=O)[C@H](CCCCN)NC(=O)[C@H](C)NC(=O)[C@H](CC(C)C)NC(=O)[C@H](C)NC(=O)[C@H](C)NC(=O)[C@H](CC(C)C)NC(=O)[C@H](C)NC(=O)[C@H](CCCCN)NC(=O)[C@H](CC(C)C)NC(=O)[C@H](CC(N)=O)NC(=O)[C@@H](N)CC(C)C)C(=O)N[C@@H](CC(C)C)C(N)=O [L1] | 57.5292 |
| CC[C@H](C)[C@H](N)C(=O)N[C@@H](CC(N)=O)C(=O)N[C@@H](CC(C)C)C(=O)N[C@@H](CCCCN)C(=O)N[C@@H](C)C(=O)N[C@@H](CC(C)C)C(=O)N[C@@H](C)C(=O)N[C@@H](C)C(=O)N[C@@H](CC(C)C)C(=O)N[C@@H](C)C(=O)N1CCC[C@H]1C(=O)N[C@@H](CCCCN)C(=O)N[C@H](C(=O)N[C@@H](CC(C)C)C(N)=O)[C@@H](C)CC [P11] | -0.07814 |
| CC[C@H](C)[C@H](N)C(=O)N[C@@H](CC(N)=O)C(=O)N[C@@H](CC(C)C)C(=O)N[C@@H](CCCCN)C(=O)N[C@@H](C)C(=O)N[C@@H](CC(C)C)C(=O)N[C@@H](C)C(=O)N[C@@H](C)C(=O)N[C@@H](CC(C)C)C(=O)N[C@@H](C)C(=O)N[C@@H](CCCCN)C(=O)N[C@@H](CCCCN)C(=O)N[C@H](C(=O)N[C@@H](CC(C)C)C(N)=O)[C@@H](C)O [T13] | 38.2444 |
| CC[C@H](C)[C@H](N)C(=O)N[C@@H](CC(N)=O)C(=O)N[C@@H](CC(C)C)C(=O)N[C@@H](CCCCN)C(=O)N[C@@H](C)C(=O)N[C@@H](CC(C)C)C(=O)N[C@@H](C)C(=O)N[C@@H](C)C(=O)N[C@@H](Cc1c[nH]c2ccccc12)C(=O)N[C@@H](C)C(=O)N[C@@H](CCCCN)C(=O)N[C@@H](CCCCN)C(=O)N[C@H](C(=O)N[C@@H](CC(C)C)C(N)=O)[C@@H](C)CC [W9] | 26.5648 |
| CC[C@H](C)[C@H](N)C(=O)N[C@@H](CC(N)=O)C(=O)N[C@@H](CC(C)C)C(=O)N[C@@H](CCCCN)C(=O)N[C@@H](C)C(=O)N[C@@H](CC(C)C)C(=O)N[C@@H](C)C(=O)N[C@H](C(=O)N[C@@H](CC(C)C)C(=O)N[C@@H](C)C(=O)N[C@@H](CCCCN)C(=O)N[C@@H](CCCCN)C(=O)N[C@H](C(=O)N[C@@H](CC(C)C)C(N)=O)[C@@H](C)CC)[C@@H](C)O [T8] | 35.9719 |
| CC[C@H](C)[C@H](N)C(=O)N[C@@H](CC(N)=O)C(=O)N[C@@H](CC(C)C)C(=O)N[C@@H](CCCCN)C(=O)N[C@@H](C)C(=O)N[C@@H](CC(C)C)C(=O)N[C@@H](C)C(=O)N[C@@H](C)C(=O)N[C@@H](CC(C)C)C(=O)N[C@@H](C)C(=O)N[C@@H](CCCCN)C(=O)N[C@@H](CCCCN)C(=O)N[C@H](C(=O)N[C@@H](CC(C)C)C(N)=O)C(C)C [V13] | 38.0334 |

---

Tested on: PBMC
conditionDescription: 12.5 µM
experimentalEndpoint: Average (percentage cell inhibition), Mastoparan PBMC (%)

| structureNotation | subjectOfTest | reportedResult |
| --- | --- | --- |
| CC[C@H](C)[C@H](N)C(=O)N[C@@H](CC(N)=O)C(=O)N[C@@H](CC(C)C)C(=O)N[C@@H](CCCCN)C(=O)N[C@@H](C)C(=O)N[C@@H](CC(C)C)C(=O)N[C@@H](C)C(=O)N[C@@H](C)C(=O)N[C@H](C(=O)N[C@@H](C)C(=O)N[C@@H](CCCCN)C(=O)N[C@@H](CCCCN)C(=O)N[C@H](C(=O)N[C@@H](CC(C)C)C(N)=O)[C@@H](C)CC)[C@@H](C)O | PBMC | 2.309 |
| CC[C@H](C)[C@H](N)C(=O)N[C@@H](CC(N)=O)C(=O)N[C@@H](CC(C)C)C(=O)N[C@@H](CCCCN)C(=O)N[C@@H](C)C(=O)N[C@@H](CC(C)C)C(=O)N[C@@H](C)C(=O)N[C@@H](C)C(=O)N[C@@H](CC(C)C)C(=O)N[C@H](C(=O)N[C@@H](CCCCN)C(=O)N[C@@H](CCCCN)C(=O)N[C@H](C(=O)N[C@@H](CC(C)C)C(N)=O)[C@@H](C)CC)[C@@H](C)O | PBMC | 8.853 |
| CC[C@H](C)[C@H](N)C(=O)N[C@@H](CC(N)=O)C(=O)N[C@@H](CC(C)C)C(=O)N[C@H](C(=O)N[C@@H](C)C(=O)N[C@@H](CC(C)C)C(=O)N[C@@H](C)C(=O)N[C@@H](C)C(=O)N[C@@H](CC(C)C)C(=O)N[C@@H](C)C(=O)N[C@@H](CCCCN)C(=O)N[C@@H](CCCCN)C(=O)N[C@H](C(=O)N[C@@H](CC(C)C)C(N)=O)[C@@H](C)CC)[C@@H](C)CC | PBMC | 5.736 |

---

Here's what we have: Average (percentage cell inhibition), Dmastoparan MDA-MB231 12.5uM numbers for MDA-MB-231 cells.
experimentalEndpoint: Average (percentage cell inhibition), Dmastoparan MDA-MB231 12.5uM (%)

| compound | reportedResult |
| --- | --- |
| CC[C@H](C)[C@H](N)C(=O)N[C@@H](CC(N)=O)C(=O)N[C@@H](CC(C)C)C(=O)N[C@@H](CCCCN)C(=O)N[C@@H](C)C(=O)N[C@@H](CC(C)C)C(=O)N[C@@H](C)C(=O)N[C@@H](CC(N)=O)C(=O)N[C@@H](CC(C)C)C(=O)N[C@@H](C)C(=O)N[C@@H](CCCCN)C(=O)N[C@@H](CCCCN)C(=O)N[C@H](C(=O)N[C@@H](CC(C)C)C(N)=O)[C@@H](C)CC [N8] | 46.3177 |
| CC[C@H](C)[C@H](N)C(=O)N[C@@H](CC(N)=O)C(=O)N[C@@H](CC(C)C)C(=O)N[C@@H](CCCCN)C(=O)N[C@@H](C)C(=O)N[C@@H](CC(C)C)C(=O)N[C@@H](C)C(=O)N[C@@H](C)C(=O)N[C@H](C(=O)N[C@@H](C)C(=O)N[C@@H](CCCCN)C(=O)N[C@@H](CCCCN)C(=O)N[C@H](C(=O)N[C@@H](CC(C)C)C(N)=O)[C@@H](C)CC)C(C)C [V9] | 43.1794 |
| CC[C@H](C)[C@H](N)C(=O)N[C@@H](CC(N)=O)C(=O)N[C@@H](CC(C)C)C(=O)N[C@@H](CCCCN)C(=O)N[C@@H](C)C(=O)N[C@@H](CC(C)C)C(=O)N[C@@H](C)C(=O)N[C@@H](C)C(=O)N[C@@H](CC(C)C)C(=O)N[C@@H](C)C(=O)N[C@@H](CCCCN)C(=O)N[C@@H](CCCCN)C(=O)N[C@H](C(=O)NCC(N)=O)[C@@H](C)CC [G14] | 28.3643 |
| CC[C@H](C)[C@H](N)C(=O)N[C@@H](CC(N)=O)C(=O)N[C@@H](CC(C)C)C(=O)N[C@@H](CCCCN)C(=O)N[C@@H](C)C(=O)N[C@@H](CC(C)C)C(=O)N[C@@H](C)C(=O)N[C@@H](C)C(=O)N[C@@H](CC(C)C)C(=O)N[C@@H](C)C(=O)N[C@@H](CCCCN)C(=O)N[C@@H](CCCCN)C(=O)N[C@@H](Cc1c[nH]cn1)C(=O)N[C@@H](CC(C)C)C(N)=O [H13] | 24.5783 |
| CC[C@H](C)[C@H](N)C(=O)N[C@@H](CC(N)=O)C(=O)N[C@@H](CC(C)C)C(=O)N[C@@H](CCCCN)C(=O)N[C@@H](C)C(=O)N[C@@H](CC(C)C)C(=O)N[C@@H](Cc1c[nH]c2ccccc12)C(=O)N[C@@H](C)C(=O)N[C@@H](CC(C)C)C(=O)N[C@@H](C)C(=O)N[C@@H](CCCCN)C(=O)N[C@@H](CCCCN)C(=O)N[C@H](C(=O)N[C@@H](CC(C)C)C(N)=O)[C@@H](C)CC [W7] | 92.6725 |
| CC[C@H](C)[C@H](NC(=O)[C@H](CCCCN)NC(=O)[C@H](CCCCN)NC(=O)[C@H](C)NC(=O)[C@H](CC(C)C)NC(=O)[C@H](C)NC(=O)[C@H](C)NC(=O)[C@H](CC(C)C)NC(=O)[C@H](C)NC(=O)[C@H](CCCCN)NC(=O)[C@H](CC(C)C)NC(=O)[C@H](CC(N)=O)NC(=O)[C@@H](N)CCC(N)=O)C(=O)N[C@@H](CC(C)C)C(N)=O [Q1] | 44.2177 |
| CC[C@H](C)[C@H](N)C(=O)N[C@@H](CC(N)=O)C(=O)N[C@@H](CC(C)C)C(=O)N[C@@H](CCCCN)C(=O)N[C@@H](C)C(=O)N[C@@H](CC(C)C)C(=O)N[C@@H](C)C(=O)N[C@@H](C)C(=O)N[C@@H](CC(C)C)C(=O)N[C@@H](C)C(=O)N[C@@H](CCCCN)C(=O)N[C@@H](CCCCN)C(=O)N[C@H](C(=O)N[C@@H](CCC(N)=O)C(N)=O)[C@@H](C)CC [Q14] | 0.3995 |
| CC[C@H](C)[C@H](N)C(=O)N[C@@H](CC(N)=O)C(=O)N[C@@H](CC(C)C)C(=O)N[C@@H](CCCCN)C(=O)N[C@@H](C)C(=O)N[C@@H](CC(C)C)C(=O)N[C@@H](C)C(=O)N[C@@H](C)C(=O)N[C@@H](CC(C)C)C(=O)N[C@@H](C)C(=O)N[C@@H](CCCCN)C(=O)N[C@@H](CCCNC(=N)N)C(=O)N[C@H](C(=O)N[C@@H](CC(C)C)C(N)=O)[C@@H](C)CC [R12] | 35.2659 |
| CC[C@H](C)[C@H](N)C(=O)N[C@@H](CCCNC(=N)N)C(=O)N[C@@H](CC(C)C)C(=O)N[C@@H](CCCCN)C(=O)N[C@@H](C)C(=O)N[C@@H](CC(C)C)C(=O)N[C@@H](C)C(=O)N[C@@H](C)C(=O)N[C@@H](CC(C)C)C(=O)N[C@@H](C)C(=O)N[C@@H](CCCCN)C(=O)N[C@@H](CCCCN)C(=O)N[C@H](C(=O)N[C@@H](CC(C)C)C(N)=O)[C@@H](C)CC [R2] | 40.227 |
| CC[C@H](C)[C@H](N)C(=O)N[C@@H](CC(N)=O)C(=O)N[C@@H](CC(C)C)C(=O)N[C@@H](CCCCN)C(=O)N[C@@H](C)C(=O)N[C@H](C(=O)N[C@@H](C)C(=O)N[C@@H](C)C(=O)N[C@@H](CC(C)C)C(=O)N[C@@H](C)C(=O)N[C@@H](CCCCN)C(=O)N[C@@H](CCCCN)C(=O)N[C@H](C(=O)N[C@@H](CC(C)C)C(N)=O)[C@@H](C)CC)C(C)C [V6] | 10.4144 |
| CC[C@H](C)[C@H](N)C(=O)N[C@@H](CC(N)=O)C(=O)N[C@@H](CC(C)C)C(=O)N[C@@H](CCCCN)C(=O)N[C@H](C(=O)N[C@@H](CC(C)C)C(=O)N[C@@H](C)C(=O)N[C@@H](C)C(=O)N[C@@H](CC(C)C)C(=O)N[C@@H](C)C(=O)N[C@@H](CCCCN)C(=O)N[C@@H](CCCCN)C(=O)N[C@H](C(=O)N[C@@H](CC(C)C)C(N)=O)[C@@H](C)CC)C(C)C [V5] | 36.2551 |
